target: Bromodomain adjacent to zinc finger domain protein 2A (Homo sapiens, UniProt Q9UIF9); experiment: Binding affinity to BAZ2A in human HUT78 cells incubated for 45 mins by mass spectrometry based bromosphere chemoproteomic assay; assay type: cell-based
Sequence (Q9UIF9 whole entry, the tested form may be a part): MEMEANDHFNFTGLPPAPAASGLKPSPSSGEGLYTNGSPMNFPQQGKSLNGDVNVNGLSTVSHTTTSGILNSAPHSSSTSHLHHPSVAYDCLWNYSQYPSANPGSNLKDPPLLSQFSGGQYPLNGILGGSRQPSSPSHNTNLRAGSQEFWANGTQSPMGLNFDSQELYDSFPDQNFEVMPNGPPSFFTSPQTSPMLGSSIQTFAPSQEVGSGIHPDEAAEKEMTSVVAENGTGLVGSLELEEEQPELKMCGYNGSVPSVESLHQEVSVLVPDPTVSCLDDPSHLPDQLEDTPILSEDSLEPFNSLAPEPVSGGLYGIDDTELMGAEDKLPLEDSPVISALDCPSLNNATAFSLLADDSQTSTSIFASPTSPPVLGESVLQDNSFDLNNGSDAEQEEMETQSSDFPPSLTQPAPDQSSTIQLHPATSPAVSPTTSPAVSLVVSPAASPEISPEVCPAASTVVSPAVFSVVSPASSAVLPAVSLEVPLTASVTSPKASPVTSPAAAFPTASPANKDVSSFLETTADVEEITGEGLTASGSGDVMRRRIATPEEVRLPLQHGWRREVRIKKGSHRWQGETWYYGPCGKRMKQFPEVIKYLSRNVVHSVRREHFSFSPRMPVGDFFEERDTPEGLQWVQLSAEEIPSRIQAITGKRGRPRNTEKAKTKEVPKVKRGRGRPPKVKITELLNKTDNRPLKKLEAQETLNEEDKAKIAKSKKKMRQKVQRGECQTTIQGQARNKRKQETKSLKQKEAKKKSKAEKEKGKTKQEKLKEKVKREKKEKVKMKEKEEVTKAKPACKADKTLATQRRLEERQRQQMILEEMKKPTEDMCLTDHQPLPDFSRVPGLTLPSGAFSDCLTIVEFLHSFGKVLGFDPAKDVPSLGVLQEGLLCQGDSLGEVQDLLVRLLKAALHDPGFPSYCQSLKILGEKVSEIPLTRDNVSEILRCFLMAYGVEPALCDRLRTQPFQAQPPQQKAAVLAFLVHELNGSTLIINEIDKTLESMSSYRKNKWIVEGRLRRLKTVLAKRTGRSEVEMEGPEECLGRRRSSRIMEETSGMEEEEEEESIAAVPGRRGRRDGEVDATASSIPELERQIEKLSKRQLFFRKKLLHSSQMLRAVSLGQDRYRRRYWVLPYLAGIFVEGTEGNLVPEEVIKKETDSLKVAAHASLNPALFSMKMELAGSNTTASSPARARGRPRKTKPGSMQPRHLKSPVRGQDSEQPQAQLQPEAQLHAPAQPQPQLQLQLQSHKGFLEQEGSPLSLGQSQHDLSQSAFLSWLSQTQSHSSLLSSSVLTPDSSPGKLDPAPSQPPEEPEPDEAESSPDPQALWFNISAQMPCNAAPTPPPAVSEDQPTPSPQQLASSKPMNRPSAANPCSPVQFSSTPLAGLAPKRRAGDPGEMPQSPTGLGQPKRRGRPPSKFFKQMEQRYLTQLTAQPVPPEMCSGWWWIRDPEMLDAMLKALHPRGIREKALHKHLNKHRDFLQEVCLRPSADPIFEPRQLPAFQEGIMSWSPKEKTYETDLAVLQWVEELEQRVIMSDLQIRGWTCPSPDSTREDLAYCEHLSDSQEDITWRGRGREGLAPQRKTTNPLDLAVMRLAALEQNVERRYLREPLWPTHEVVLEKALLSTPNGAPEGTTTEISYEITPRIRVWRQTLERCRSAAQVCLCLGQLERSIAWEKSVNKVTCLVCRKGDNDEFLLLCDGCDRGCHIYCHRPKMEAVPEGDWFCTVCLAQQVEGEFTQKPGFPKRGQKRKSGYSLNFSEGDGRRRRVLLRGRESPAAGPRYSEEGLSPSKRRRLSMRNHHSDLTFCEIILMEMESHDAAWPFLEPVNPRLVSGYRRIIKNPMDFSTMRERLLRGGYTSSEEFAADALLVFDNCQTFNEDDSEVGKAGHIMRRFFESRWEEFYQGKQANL
Each entry below carries its recorded Kd.

Please review the following examples before continuing.
{"SMILES_TEXT": "Cc1cncc(-c2cnc(N[C@@H]3CCN(C)C[C@H]3OCC3CCS(=O)(=O)CC3)c3[nH]c(=O)c(C)cc23)c1", "Kd": "> 100 µM"}
{"SMILES_TEXT": "Cc1cncc(-c2ccc(N[C@@H]3CCNC[C@H]3OCC3CCS(=O)(=O)CC3)c3[nH]c(=O)c(C)cc23)c1", "Kd": "3.98 µM"}

Now for another entry.
QUERY: Entry Cc1cncc(-c2cnc(N[C@@H]3CCNC[C@H]3OCC3CCCCC3)c3[nH]c(=O)c(C)cc23)c1 : reported Kd = ?
RESULT: > 100 µM

Value source: ChEMBL document CHEMBL3588744
